system: ATS95; experiment: qHTS profiling for inhibitors of Plasmodium falciparum proliferation (AID 504749); note: nearly all actives have a fitted effect of over 60% in size; conditions: P. falciparum in erythrocytes, SYBR Green DNA, 72 h; series mostly up to 28.7 µM
Records with an inconclusive call do not appear. Calls of active or inactive are those of the source. Calls come from the whole dose curve; as a rule, active = well fitted inhibition curve with a large enough effect; inconclusive = small, poorly fitted or top-dose-only effect; inactive = flat fitted curve, though single readings scatter.
// classify into y for active, n for inactive

Short answer needed: outcome of this test for Nc1nc(-c2ccccc2)c(Br)c(=O)[nH]1 ?
n

Short answer needed: outcome of this test for CC(=O)Oc1ccc(C)cc1 ?
n

Short answer needed: outcome of this test for COc1ccc2c(c1)c1c3n2CCN(C)C3=NCC1 ?
n

Short answer needed: outcome of this test for Nc1ccc(S(=O)(=O)NCc2ccccc2)cc1 ?
n

Short answer needed: outcome of this test for O=C(O)CCC(=O)Nc1ccc(S(=O)(=O)Nc2nccs2)cc1 ?
n

Short answer needed: outcome of this test for CC(C)=CCOc1ccc(/C=C/C(=O)c2ccc(OCC=C(C)C)cc2OCC(=O)O)cc1 ?
n

Short answer needed: outcome of this test for C[C@@H](O)[C@H]1C(=O)N2C(C(=O)O)=C(S[C@@H]3CN[C@H](CNS(N)(=O)=O)C3)[C@H](C)[C@H]12 ?
n

Short answer needed: outcome of this test for CCCCC(CC)COC(=O)/C=C/c1ccc(OC)cc1 (stereo unspecified) ?
n

Short answer needed: outcome of this test for NCCNc1cccc2ccccc12 ?
n

Short answer needed: outcome of this test for Cc1nc(-c2ccc(Cl)cc2)oc1COC(C)(C)C(=O)O ?
n

Short answer needed: outcome of this test for CCOc1ccccc1C(N)=O ?
n

Short answer needed: outcome of this test for COc1cc(C(=S)N2CCOCC2)ccc1O ?
n

Short answer needed: outcome of this test for CC1(COc2ccc(CC3SC(=O)NC3=O)cc2)CCCCC1 (stereo unspecified) ?
n

Short answer needed: outcome of this test for CCCCCCCCCCCCCC[N+](C)(C)Cc1ccccc1 ?
y

Short answer needed: outcome of this test for O=C(O)C(Cc1cc(I)c(O)c(I)c1)c1ccccc1 (stereo unspecified) ?
n

Short answer needed: outcome of this test for O=C1C(=O)c2ccccc2C(O)=C1C1CCC(c2ccc(Cl)cc2)CC1 (stereo unspecified) ?
y

Short answer needed: outcome of this test for Oc1ccccc1C=NCc1ccccc1 ?
n

Short answer needed: outcome of this test for O=S(=O)(O)c1ccc(O)cc1 ?
n

Short answer needed: outcome of this test for CC(=O)NC(=O)c1ccccc1O ?
n

Short answer needed: outcome of this test for FC(F)(F)C(F)(F)C(F)(F)C(F)(F)C(F)(F)C(F)(F)C(F)(F)C(F)(F)Br ?
n

Short answer needed: outcome of this test for CCCCN=C(N)N=C(N)N ?
n

Short answer needed: outcome of this test for CCCCCCCCCCCCCCCC(=O)O ?
n

Short answer needed: outcome of this test for NS(=O)(=O)Cc1noc2ccccc12 ?
n

Short answer needed: outcome of this test for O=C(NCCc1c[nH]c2ccccc12)c1cccnc1 ?
n

Short answer needed: outcome of this test for CCOc1ccc(NC(C)=O)cc1 ?
n

Short answer needed: outcome of this test for O[C@@H](c1cc(C(F)(F)F)nc2c(C(F)(F)F)cccc12)[C@H]1CCCCN1 ?
y

Short answer needed: outcome of this test for O=C1C(CCS(=O)c2ccccc2)C(=O)N(c2ccccc2)N1c1ccccc1 (stereo unspecified) ?
n

Short answer needed: outcome of this test for O=C(O)Cc1csc(-c2ccc(Cl)cc2)n1 ?
n

Short answer needed: outcome of this test for CCc1ccc(C(=O)C(C)CN2CCCCC2)cc1 (stereo unspecified) ?
n

Short answer needed: outcome of this test for OC[C@H]1O[C@@H]2O[C@H]3[C@H](O)[C@@H](O)[C@@H](O[C@H]4[C@H](O)[C@@H](O)[C@@H](O[C@H]5[C@H](O)[C@@H](O)[C@@H](O[C@H]6[C@H](O)[C@@H](O)[C@@H](O[C@H]7[C@H](O)[C@@H](O)[C@@H](O[C@H]8[C@H](O)[C@@H](O)[C@@H](O[C@H]1[C@H](O)[C@H]2O)O[C@@H]8CO)O[C@@H]7CO)O[C@@H]6CO)O[C@@H]5CO)O[C@@H]4CO)O[C@@H]3CO ?
n

Short answer needed: outcome of this test for COc1ccc(-c2cc(C(F)F)nn2-c2ccc(S(N)(=O)=O)cc2)cc1F ?
n

Short answer needed: outcome of this test for c1ccc(-c2nc[nH]c2-c2ccccc2)cc1 ?
n

Short answer needed: outcome of this test for CCCCNC(=O)NS(=O)(=O)c1ccc(N)cc1 ?
n

Short answer needed: outcome of this test for C#C[C@]1(O)CC[C@H]2[C@@H]3CCC4=CC(=O)CC[C@@H]4[C@H]3CC[C@@]21CC ?
n

Short answer needed: outcome of this test for CC(=O)N[C@@H](CCC(=O)O)C(=O)O ?
n

Short answer needed: outcome of this test for C#C[C@]1(O)CC[C@H]2[C@@H]3CCc4cc(OC)ccc4[C@H]3CC[C@@]21C ?
n

Short answer needed: outcome of this test for N#CCC(=O)NN ?
n

Short answer needed: outcome of this test for CCN(CC)CCOC(=O)C1(c2ccccc2)CCCC1 ?
n

Short answer needed: outcome of this test for COc1cc(O)c(C(=O)c2ccccc2)cc1S(=O)(=O)O ?
n

Short answer needed: outcome of this test for C/C=C/C=N/NC(=O)c1ccncc1 ?
n

Short answer needed: outcome of this test for CCOC(=O)C(C#N)=C(c1ccccc1)c1ccccc1 ?
n

Short answer needed: outcome of this test for CC[N+](C)(CC)CCOC(=O)C(O)(c1ccccc1)C1CCCCC1 (stereo unspecified) ?
n

Short answer needed: outcome of this test for CCOc1cc(OCC)c(C(=O)CCC(=O)O)cc1OCC ?
n

Short answer needed: outcome of this test for CCN(CC)CCNC(=O)c1cc(Br)c(N)cc1OC ?
n

Short answer needed: outcome of this test for CC(C)Nc1cccnc1N1CCN(C(=O)c2cc3cc(NS(C)(=O)=O)ccc3[nH]2)CC1 ?
n

Short answer needed: outcome of this test for Cc1ccc(S(=O)(=O)NC(=O)NC2CCCC2)cc1 ?
n

---

test system: Tov112D; test: Primary qHTS to identify gynecologic anti-cancer compounds using libraries of approved drugs and bioactive compounds (AID 1345084); details: Gynecologic cancer cell panel viability, ATPlite luminescence, 48 h; series mostly up to 57.5 µM; note: nearly all actives have a fitted effect of over 55% in size
Records with an inconclusive call do not appear. The source made the active and inactive calls. The call rests on the fitted dose curve; in most records, active means well fitted cell-killing curve with a large enough effect; inconclusive means small, poorly fitted or top-dose-only effect, or effect the other way; inactive means flat fitted curve, though single readings scatter.
Metric: outcome

>>> value_observed("CC(C)(C)NC[C@H](O)COc1nsnc1N1CCOCC1")
"inactive"
>>> value_observed("O=C(O)CCNC(=O)c1ccccc1")
"inactive"
>>> value_observed("Cc1cccc(C)c1NC(=O)CN1CCCCCC1")
"inactive"
>>> value_observed("COc1cc(C)nc(-n2nc(C)cc2OC)n1")
"inactive"

Recorded outcome for CO[C@]12C[C@@H](COC(=O)c3cncc(Br)c3)CN(C)[C@@H]1Cc1cn(C)c3cccc2c13 , please?
inactive

Recorded outcome for CN(CCCN1c2ccccc2CCc2ccccc21)CC(=O)c1ccc(Cl)cc1 , please?
inactive

---

test system: CP269; experiment: qHTS profiling for inhibitors of Plasmodium falciparum proliferation (AID 504749); note: nearly all actives have a fitted effect of over 60% in size; conditions: P. falciparum in erythrocytes, SYBR Green DNA, 72 h; series mostly up to 28.7 µM
Records with an inconclusive call do not appear. Activity calls are given as the source filed them. The call rests on the fitted dose curve; in most records, active means well fitted inhibition curve with a large enough effect; inconclusive means small, poorly fitted or top-dose-only effect; inactive means flat fitted curve, though single readings scatter.
// classify into 1 (active), -1 (inactive)

Short answer needed: outcome of this test for CCCCCCCCCCCCCC[N+](C)(C)Cc1ccccc1 ?
1

Short answer needed: outcome of this test for CCOCCn1c(N2CCCN(C)CC2)nc2ccccc21 ?
-1

Short answer needed: outcome of this test for CC(=O)Oc1ccc(C)cc1 ?
-1

Short answer needed: outcome of this test for Cc1cccc(C)c1NC(=O)c1ccccc1C(=O)O ?
-1

Short answer needed: outcome of this test for COP(=O)(OC)OC(c1ccc(Cl)cc1)P(=O)(OC)OC (stereo unspecified) ?
-1

Short answer needed: outcome of this test for CCc1ccc(C(=O)C(C)CN2CCCCC2)cc1 (stereo unspecified) ?
-1

Short answer needed: outcome of this test for CC(=O)OCC(=O)[C@H]1CC[C@H]2[C@@H]3CCC4=CC(=O)CC[C@]4(C)[C@H]3CC[C@]12C ?
-1

Short answer needed: outcome of this test for CCN(CC)CCNc1ccc(CO)c2sc3ccccc3c(=O)c12 ?
1

Short answer needed: outcome of this test for N=C(N)N1CCc2ccccc2C1 ?
-1

Short answer needed: outcome of this test for O=C(O)C1(C(=O)O)CCC1.[NH2-].[NH2-].[Pt+2] ?
-1

Short answer needed: outcome of this test for CCOC(=O)Nc1ccc2c(c1)N(C(=O)CCN1CCOCC1)c1ccccc1S2 ?
-1

Short answer needed: outcome of this test for NS(=O)(=O)Cc1noc2ccccc12 ?
-1

Short answer needed: outcome of this test for COc1ccc(CN(CCN(C)C)c2ncccn2)cc1 ?
-1

Short answer needed: outcome of this test for COc1ccc2c(c1)c1c3n2CCN(C)C3=NCC1 ?
-1

Short answer needed: outcome of this test for COc1ccccc1N1CCN(CCCCNC(=O)c2ccc(-c3ccc(C(C)=O)cc3)cc2)CC1 ?
-1

Short answer needed: outcome of this test for CC(=O)OC[C@H]1O[C@@H](n2ncc(=O)[nH]c2=O)[C@H](OC(C)=O)[C@@H]1OC(C)=O ?
-1

Short answer needed: outcome of this test for O[C@@H](c1cc(C(F)(F)F)nc2c(C(F)(F)F)cccc12)[C@H]1CCCCN1 ?
1

Short answer needed: outcome of this test for Cl/C(=C\n1cncn1)c1ccc(Cl)cc1Cl ?
-1

Short answer needed: outcome of this test for Cc1ccccc1OCC(O)CO (stereo unspecified) ?
-1

Short answer needed: outcome of this test for CCCCN=C(N)N=C(N)N ?
-1

Short answer needed: outcome of this test for C/C=C/c1ccc(O)c(OC)c1 ?
-1

Short answer needed: outcome of this test for Oc1ccc(Cl)cc1Cc1cc(Cl)ccc1O ?
-1

Short answer needed: outcome of this test for Nc1nc(-c2ccccc2)c(Br)c(=O)[nH]1 ?
-1

Short answer needed: outcome of this test for CCCc1ncc(C[n+]2ccccc2C)c(N)n1 ?
-1

Short answer needed: outcome of this test for NC(N)=NCc1cccc(I)c1 ?
-1

Short answer needed: outcome of this test for NC(=O)c1ccccc1O ?
-1
